- target.system: recombinant full-length FEN-1 (Homo sapiens (Human), UniProt P39748)
- Sequence (P39748 whole entry): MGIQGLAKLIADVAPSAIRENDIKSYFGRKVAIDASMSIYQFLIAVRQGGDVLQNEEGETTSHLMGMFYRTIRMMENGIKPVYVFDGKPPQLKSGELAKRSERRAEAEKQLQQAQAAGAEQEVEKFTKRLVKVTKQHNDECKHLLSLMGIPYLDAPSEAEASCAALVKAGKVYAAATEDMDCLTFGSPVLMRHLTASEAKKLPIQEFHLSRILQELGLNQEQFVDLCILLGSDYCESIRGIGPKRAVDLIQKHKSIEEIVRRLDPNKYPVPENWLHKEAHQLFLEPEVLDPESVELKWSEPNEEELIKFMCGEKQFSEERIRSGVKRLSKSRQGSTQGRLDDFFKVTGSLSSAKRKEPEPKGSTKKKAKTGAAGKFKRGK
- assay.comment: Fluorogenic biochemical (enzymatic) assay, FEN-1
- test.context: 200 nM DNA flap substrate, 50 mM Tris pH 8.0, 10 mM MgCl2, 2-4 hours at 25° C. or 37° C., read-out: SMD FEN-1 IC50
value.kind: pIC50
Give bare numbers, as −log10 of the molar value.

{"query.smiles": "CN(C)c1cccc(S(=O)(=O)c2cccc3c(=O)n(O)c(=O)[nH]c23)c1", "target.system": "recombinant full-length FEN-1 (Homo sapiens (Human), UniProt P39748)", "value.kind": "pIC50", "reported.value": 7.83}
{"query.smiles": "Cc1cc(Cl)cc(S(=O)(=O)c2ccc(Cl)c3c(=O)n(O)c(=O)[nH]c23)c1", "target.system": "recombinant full-length FEN-1 (Homo sapiens (Human), UniProt P39748)", "value.kind": "pIC50", "reported.value": 8.03}
{"query.smiles": "O=c1[nH]c2c(S(=O)(=O)c3cccc(Cl)c3)cccc2c(=O)n1O", "target.system": "recombinant full-length FEN-1 (Homo sapiens (Human), UniProt P39748)", "value.kind": "pIC50", "reported.value": 7.58}
{"query.smiles": "O=c1[nH]c2c(S(=O)(=O)c3ccccc3)cc(F)cc2c(=O)n1O", "target.system": "recombinant full-length FEN-1 (Homo sapiens (Human), UniProt P39748)", "value.kind": "pIC50", "reported.value": 7.81}
{"query.smiles": "O=c1[nH]c2c(F)cccc2c(=O)n1O", "target.system": "recombinant full-length FEN-1 (Homo sapiens (Human), UniProt P39748)", "value.kind": "pIC50", "reported.value": 7.38}

Shifting focus to the compound that follows.
### Prompt # pIC50 lookup, item "O=c1[nH]c2c(S(=O)(=O)c3cc(F)cc(F)c3)ccc(Cl)c2c(=O)n1O"
### Response 8.17

Data origin: patent US11253521B2
